# System: Tyrosine-protein kinase ABL1 (Homo sapiens), P00519 [H396P]
# Condition Summary: at 1 µM
Recorded Metric: inhibition (%)
Please respond with the number in % and leave the unit unwritten.

Answered examples (5):
Chemical Structure: COc1cc(Nc2ncc3c(C)nc(-c4cccc(Oc5ccccc5)c4)n3n2)cc(OC)c1OC
inhibition (%): 1.6
--
Chemical Structure: CS(=O)(=O)CCNCc1ccc(-c2ccc3ncnc(Nc4ccc(OCc5ccccc5)c(Br)c4)c3c2)o1
inhibition (%): 4.61
--
Chemical Structure: N#Cc1ccc(Oc2nccc(-c3c(-c4ccc(F)cc4)ncn3C3CCNCC3)n2)cc1
inhibition (%): 5.59
--
Chemical Structure: O=C1NC(=O)C(c2cccc(Cl)c2)=C1Nc1ccc(Cl)c(C(=O)O)c1
inhibition (%): 6.18
--
Chemical Structure: NC(=O)Cc1ccccc1Oc1nccc(-c2c(-c3ccc(F)cc3)ncn2C2CCNCC2)n1
inhibition (%): -2.39

## Input Param item = "FC(F)(F)c1cccc(Nc2nccc(-c3cnn4nc(-c5ccccc5)ccc34)n2)c1" ; retrieve measured inhibition.
## Output 4.75

## Input Param item = "O=C(Nc1n[nH]c2nc(-c3ccc(O)cc3)c(Br)cc12)C1CC1" ; retrieve measured inhibition.
## Output 81

## Input Param item = "NC(=O)c1cc(-c2ccncc2)cc(-c2ccccc2)c1N" ; retrieve measured inhibition.
## Output 39.4

## Input Param item = "O=C1Nc2ccccc2/C1=C/Nc1ccc(-n2cncn2)cc1" ; retrieve measured inhibition.
## Output 13.3

## Input Param item = "COc1ccc(-c2ccc3c(NC(=O)C4CC4)n[nH]c3n2)cc1" ; retrieve measured inhibition.
## Output 28
